// data source = patent US20230340155A1

// reported pKd per item
assay-target: T1, cyno PD-1 (SPR analyte) (cynomolgus monkey)
T1 construct: Construct of the soluble analyte is not described; also called cynomolgus PD-1
assay-overview: SPR, ProteOn XPR36, mAb captured by anti-human IgG Fc, cyno PD-1 as analyte, 25 C
A value of pKd is the negative decimal logarithm of a concentration given in moles per litre.

Examples with answers:
I'd like to know its pKd. The binder in question is PD1B1089 (antibody, human IgG1, kappa, V domains shown, IgG1; also called PD1H405/PD1L652; S30P (VL) variant of PD1B878) VH: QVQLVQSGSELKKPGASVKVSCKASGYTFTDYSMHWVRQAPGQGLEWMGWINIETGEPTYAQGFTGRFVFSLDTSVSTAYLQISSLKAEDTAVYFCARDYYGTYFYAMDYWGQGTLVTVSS VL: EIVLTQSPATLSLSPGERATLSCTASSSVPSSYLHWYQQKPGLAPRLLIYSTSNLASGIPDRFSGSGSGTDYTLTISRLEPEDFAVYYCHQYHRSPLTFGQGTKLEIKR 7.05

I'd like to know its pKd. The binder in question is PD1B1094 (antibody, human IgG1, kappa, V domains shown, IgG1; also called PD1H586/PD1L652; E57H (VH), S30P (VL) variant of PD1B878) VH: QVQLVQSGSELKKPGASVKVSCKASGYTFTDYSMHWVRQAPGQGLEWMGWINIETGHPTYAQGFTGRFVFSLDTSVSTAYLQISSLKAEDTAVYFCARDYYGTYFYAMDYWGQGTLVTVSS VL: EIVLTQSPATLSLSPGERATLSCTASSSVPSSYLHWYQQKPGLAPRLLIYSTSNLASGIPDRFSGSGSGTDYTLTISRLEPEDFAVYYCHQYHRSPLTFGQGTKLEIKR 7.92

I'd like to know its pKd. The binder in question is PD1B1091 (antibody, human IgG1, kappa, V domains shown, IgG1; also called PD1H586/PD1L651; E57H (VH), V29F (VL) variant of PD1B878) VH: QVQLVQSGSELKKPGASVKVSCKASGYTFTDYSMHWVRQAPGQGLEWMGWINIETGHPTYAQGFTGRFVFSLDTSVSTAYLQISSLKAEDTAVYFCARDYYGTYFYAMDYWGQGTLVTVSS VL: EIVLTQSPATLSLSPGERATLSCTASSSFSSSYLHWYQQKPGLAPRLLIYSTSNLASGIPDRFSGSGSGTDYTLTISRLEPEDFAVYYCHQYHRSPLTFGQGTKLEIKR 8.03

More entries:
I'd like to know its pKd. The binder in question is PD1B1095 (antibody, human IgG1, kappa, V domains shown, IgG1; also called PD1H587/PD1L652; E57W (VH), S30P (VL) variant of PD1B878) VH: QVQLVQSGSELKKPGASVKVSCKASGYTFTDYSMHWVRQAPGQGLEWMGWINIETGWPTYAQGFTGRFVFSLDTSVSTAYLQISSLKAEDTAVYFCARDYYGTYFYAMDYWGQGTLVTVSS VL: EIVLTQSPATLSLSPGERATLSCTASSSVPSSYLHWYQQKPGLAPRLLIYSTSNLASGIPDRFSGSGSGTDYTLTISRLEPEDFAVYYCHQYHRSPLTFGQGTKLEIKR 8.37

I'd like to know its pKd. The binder in question is PD1B1086 (antibody, human IgG1, kappa, V domains shown, IgG1; also called PD1H586/PD1L469; E57H (VH) variant of PD1B878) VH: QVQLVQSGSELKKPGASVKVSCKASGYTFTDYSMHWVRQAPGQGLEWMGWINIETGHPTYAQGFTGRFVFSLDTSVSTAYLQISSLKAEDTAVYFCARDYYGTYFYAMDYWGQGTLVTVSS VL: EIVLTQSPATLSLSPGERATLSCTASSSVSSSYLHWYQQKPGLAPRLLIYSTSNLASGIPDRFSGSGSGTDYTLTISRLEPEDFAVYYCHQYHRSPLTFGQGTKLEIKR 7.50

I'd like to know its pKd. The binder in question is PD1B1087 (antibody, human IgG1, kappa, V domains shown, IgG1; also called PD1H587/PD1L469; E57W (VH) variant of PD1B878) VH: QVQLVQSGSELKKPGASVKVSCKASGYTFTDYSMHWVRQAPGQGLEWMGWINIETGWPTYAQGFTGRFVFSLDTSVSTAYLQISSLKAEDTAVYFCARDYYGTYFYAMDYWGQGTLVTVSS VL: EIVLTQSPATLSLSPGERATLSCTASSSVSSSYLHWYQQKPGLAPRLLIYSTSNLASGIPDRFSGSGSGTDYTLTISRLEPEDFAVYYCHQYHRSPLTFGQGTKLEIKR 7.94

I'd like to know its pKd. The binder in question is PD1B1092 (antibody, human IgG1, kappa, V domains shown, IgG1; also called PD1H587/PD1L651; E57W (VH), V29F (VL) variant of PD1B878) VH: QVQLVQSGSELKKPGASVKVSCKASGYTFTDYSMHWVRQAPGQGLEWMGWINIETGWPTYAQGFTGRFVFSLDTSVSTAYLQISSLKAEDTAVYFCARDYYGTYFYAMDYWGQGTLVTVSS VL: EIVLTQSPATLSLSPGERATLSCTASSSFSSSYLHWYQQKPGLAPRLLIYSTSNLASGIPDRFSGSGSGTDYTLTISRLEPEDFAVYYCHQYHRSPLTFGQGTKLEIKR 8.50

I'd like to know its pKd. The binder in question is PD1B1090 (antibody, human IgG1, kappa, V domains shown, IgG1; also called PD1H585/PD1L651; E57Y (VH), V29F (VL) variant of PD1B878) VH: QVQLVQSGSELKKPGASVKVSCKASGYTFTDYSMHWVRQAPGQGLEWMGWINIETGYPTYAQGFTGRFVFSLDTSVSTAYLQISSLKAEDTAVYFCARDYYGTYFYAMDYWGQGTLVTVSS VL: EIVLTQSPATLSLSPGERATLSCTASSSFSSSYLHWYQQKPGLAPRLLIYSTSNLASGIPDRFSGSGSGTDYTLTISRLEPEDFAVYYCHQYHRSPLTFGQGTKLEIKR 8.84

I'd like to know its pKd. The binder in question is PD1B1085 (antibody, human IgG1, kappa, V domains shown, IgG1; also called PD1H585/PD1L469; E57Y (VH) variant of PD1B878) VH: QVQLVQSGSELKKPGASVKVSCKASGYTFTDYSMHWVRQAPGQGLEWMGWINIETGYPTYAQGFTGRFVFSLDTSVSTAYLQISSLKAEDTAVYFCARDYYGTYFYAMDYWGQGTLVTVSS VL: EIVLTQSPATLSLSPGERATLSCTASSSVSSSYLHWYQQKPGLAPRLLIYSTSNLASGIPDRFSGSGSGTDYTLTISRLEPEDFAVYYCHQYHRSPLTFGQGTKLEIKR 8.19

I'd like to know its pKd. The binder in question is PD1B1088 (antibody, human IgG1, kappa, V domains shown, IgG1; also called PD1H405/PD1L651; V29F (VL) variant of PD1B878) VH: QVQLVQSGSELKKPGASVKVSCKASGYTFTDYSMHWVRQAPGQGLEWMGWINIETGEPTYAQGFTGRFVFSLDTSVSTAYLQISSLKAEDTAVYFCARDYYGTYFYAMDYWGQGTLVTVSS VL: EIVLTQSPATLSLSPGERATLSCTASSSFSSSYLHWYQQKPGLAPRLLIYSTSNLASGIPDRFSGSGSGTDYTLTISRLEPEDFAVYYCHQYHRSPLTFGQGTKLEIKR 7.14

I'd like to know its pKd. The binder in question is PD1B1093 (antibody, human IgG1, kappa, V domains shown, IgG1; also called PD1H585/PD1L652; E57Y (VH), S30P (VL) variant of PD1B878) VH: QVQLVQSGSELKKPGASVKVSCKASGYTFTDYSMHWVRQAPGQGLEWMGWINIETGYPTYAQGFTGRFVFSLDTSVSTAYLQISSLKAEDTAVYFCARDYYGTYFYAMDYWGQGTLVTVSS VL: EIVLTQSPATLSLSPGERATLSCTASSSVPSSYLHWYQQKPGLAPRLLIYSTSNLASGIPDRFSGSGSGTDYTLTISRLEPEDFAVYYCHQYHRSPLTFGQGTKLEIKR 8.66
